Biological target: T1, SARS-CoV-2 C14S,C23S,C73S NSP9 (triSer-Nsp9) (SARS-CoV-2, UniProt P0DTC1 4141-4253)
T1 construct: also called NSP (dissolved in ammonium acetate); INS (dissolved in DMSO/PBS)
T1 chain: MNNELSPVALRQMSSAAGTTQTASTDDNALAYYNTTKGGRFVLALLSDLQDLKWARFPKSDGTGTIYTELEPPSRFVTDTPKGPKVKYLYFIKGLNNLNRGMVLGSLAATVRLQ
Test: ELISA signal on NSP over uncoated blocked blank
Quantity Kind: NSP/control
Respond using a number only.

Request: Fill in reported NSP/control for this entry: 2INS27 (VHH) VHH: QVQLQESGGGLVQAGGSLRLSCATSGSIFSSAVMGWYRQAPGNERELVALIGSSDTTDYSNSVKGRFTISRDNAKNTAYLRMNSLKPEDTAVYYCTAVKYGLGGFVYWGQGTQVTVSS
Response: 28.9

Request: Fill in reported NSP/control for this entry: 3INS39 (VHH) VHH: QVQLQESGGGLVQAGGSLRVSCEVSGIMFGINTMGWYRQAPGKQRELVAHITSSGSTNYADSVKGRFTISRDNAKKTVYLQMNSLKPEDTAVYYCNVVAGWGPPPGYWGQGTQVTVSS
Response: 4.42

Request: Fill in reported NSP/control for this entry: 3NSP52 (VHH) VHH: QVQLQESGGGLVQPEGSLRLSCAASGLTFDSYAIGWFRQAPGKEREFVAASIWSGDSGHYTGSVKGRFTISRDNAKNTVDLQMNSLKPEDTAVYYCAASASFLHSANYHMRAKWGYWGQGTQVTVSS
Response: 34.2

Request: Fill in reported NSP/control for this entry: 2NSP90 (VHH) VHH: QVQLQESGGGLVQTGDSLRLSCAVSGRTFSTYSVGWFRQAPGKEREFVALRWSGGTTYYADSVVGRFTVSRDNAKNTVYLEMNSLKPEDTAVYYCAADRGSGSYSPTYRWDYWGQGTQVTVSS
Response: 50.8

Request: Fill in reported NSP/control for this entry: 2NSP23 (VHH) VHH: QVQLQESGGGLVQPGGSLRLSCAASGLAFSMYTMGWFRQAPGKEREFVAMIISSGDSTDYADSVKGRFTISRDNGKNTVYLQMDSLKPEDTAVYYCAAPKFRYYFSTSPGDFDSWGQGTQVTVSS
Response: 41.8

Request: Fill in reported NSP/control for this entry: 2INS61 (VHH) VHH: QVQLQESGGGLVQAGGSLRLSCAASGSIFSINTMGWYRQAPGKQRELVAAITSGGSTNYADSVKGRFTISRDNAKNTVHLQMNSLKPEDTAVYYCNVVEGWGPPVGYWGQGTQVTVSS
Response: 8.02
